Target: human PDE2A1 (Homo sapiens (Human), UniProt O00408)
Sequence (O00408 other isoform, or with tags, fused parts or gaps): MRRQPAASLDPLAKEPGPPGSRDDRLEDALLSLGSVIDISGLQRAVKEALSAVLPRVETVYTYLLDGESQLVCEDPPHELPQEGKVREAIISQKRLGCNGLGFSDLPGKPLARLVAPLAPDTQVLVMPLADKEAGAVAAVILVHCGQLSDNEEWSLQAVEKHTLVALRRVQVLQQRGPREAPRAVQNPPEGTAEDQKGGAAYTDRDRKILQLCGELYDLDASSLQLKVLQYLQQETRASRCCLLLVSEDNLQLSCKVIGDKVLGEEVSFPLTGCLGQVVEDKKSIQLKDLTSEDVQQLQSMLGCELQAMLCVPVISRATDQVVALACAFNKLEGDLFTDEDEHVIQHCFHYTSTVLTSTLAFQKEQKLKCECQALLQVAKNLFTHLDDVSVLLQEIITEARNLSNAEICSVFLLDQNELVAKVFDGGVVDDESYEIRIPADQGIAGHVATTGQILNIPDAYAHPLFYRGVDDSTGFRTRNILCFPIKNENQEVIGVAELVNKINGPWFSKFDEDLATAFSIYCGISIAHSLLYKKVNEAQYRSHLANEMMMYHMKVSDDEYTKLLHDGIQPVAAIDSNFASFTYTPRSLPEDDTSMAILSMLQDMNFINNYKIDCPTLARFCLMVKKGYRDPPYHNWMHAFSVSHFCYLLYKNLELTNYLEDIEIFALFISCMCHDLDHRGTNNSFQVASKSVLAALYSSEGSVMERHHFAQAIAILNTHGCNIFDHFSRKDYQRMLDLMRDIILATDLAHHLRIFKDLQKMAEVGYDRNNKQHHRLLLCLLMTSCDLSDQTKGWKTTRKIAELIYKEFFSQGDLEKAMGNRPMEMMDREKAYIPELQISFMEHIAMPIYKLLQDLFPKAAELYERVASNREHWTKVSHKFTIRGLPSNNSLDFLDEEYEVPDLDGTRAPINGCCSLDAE
Assay: IMAP FP PDE selectivity panel, human PDE2A1
Type: biochemical
Conditions: Human PDE2, Lab B; read-out: Human PDE2 Ki (nM) - Lab B
measured_parameter: Ki (nM)

{"compound": "C[C@@H](NC(=O)c1cc(=O)[nH]c(-c2ncccn2)n1)c1ccc(C2CC2)cc1", "assayed_system": "human PDE2A1 (Homo sapiens (Human), UniProt O00408)", "Ki / nM": 6.3}
{"compound": "O=C(N[C@@H]1COCc2cc(C(F)(F)F)ccc21)c1cc(=O)[nH]c(-c2ccccc2)n1", "assayed_system": "human PDE2A1 (Homo sapiens (Human), UniProt O00408)", "Ki / nM": 157}
{"compound": "CC[C@@H](NC(=O)c1cc(=O)[nH]c(C(C)(C)c2ccc(OC)cc2)n1)c1ccc(SC(F)(F)F)cc1", "assayed_system": "human PDE2A1 (Homo sapiens (Human), UniProt O00408)", "Ki / nM": 45}
{"compound": "COc1ccc(Cc2nc(C(=O)N[C@@H](c3ccc(OC(F)(F)F)cc3)C3CC3)cc(=O)[nH]2)cc1", "assayed_system": "human PDE2A1 (Homo sapiens (Human), UniProt O00408)", "Ki / nM": 1.9}
{"compound": "CC[C@@H](NC(=O)c1cc(=O)[nH]c(C)n1)c1ccc(C(F)F)c(F)c1", "assayed_system": "human PDE2A1 (Homo sapiens (Human), UniProt O00408)", "Ki / nM": 148}

A. COc1ccc(Cc2nc(C(=O)N[C@@H](c3ccc(SC(F)(F)F)cc3)C(C)C)cc(=O)[nH]2)cc1
B. CC(C)(NC(=O)c1cc(=O)[nH]c(-c2ncccn2)n1)c1ccc(C(F)(F)F)cc1Cl
C. CC(C)[C@@H](NC(=O)c1cc(=O)[nH]c(-c2ccccc2)n1)c1ccc(C2(C)CC2)cc1
Q: Number of compounds to sort: 3. Sort criterion: Ki, ascending. Form entry: labels listed in requested order.
Ans: A, C, B

* * *

Biological target: UniProtKB B3VTJ2
Sequence (B3VTJ2 1-941): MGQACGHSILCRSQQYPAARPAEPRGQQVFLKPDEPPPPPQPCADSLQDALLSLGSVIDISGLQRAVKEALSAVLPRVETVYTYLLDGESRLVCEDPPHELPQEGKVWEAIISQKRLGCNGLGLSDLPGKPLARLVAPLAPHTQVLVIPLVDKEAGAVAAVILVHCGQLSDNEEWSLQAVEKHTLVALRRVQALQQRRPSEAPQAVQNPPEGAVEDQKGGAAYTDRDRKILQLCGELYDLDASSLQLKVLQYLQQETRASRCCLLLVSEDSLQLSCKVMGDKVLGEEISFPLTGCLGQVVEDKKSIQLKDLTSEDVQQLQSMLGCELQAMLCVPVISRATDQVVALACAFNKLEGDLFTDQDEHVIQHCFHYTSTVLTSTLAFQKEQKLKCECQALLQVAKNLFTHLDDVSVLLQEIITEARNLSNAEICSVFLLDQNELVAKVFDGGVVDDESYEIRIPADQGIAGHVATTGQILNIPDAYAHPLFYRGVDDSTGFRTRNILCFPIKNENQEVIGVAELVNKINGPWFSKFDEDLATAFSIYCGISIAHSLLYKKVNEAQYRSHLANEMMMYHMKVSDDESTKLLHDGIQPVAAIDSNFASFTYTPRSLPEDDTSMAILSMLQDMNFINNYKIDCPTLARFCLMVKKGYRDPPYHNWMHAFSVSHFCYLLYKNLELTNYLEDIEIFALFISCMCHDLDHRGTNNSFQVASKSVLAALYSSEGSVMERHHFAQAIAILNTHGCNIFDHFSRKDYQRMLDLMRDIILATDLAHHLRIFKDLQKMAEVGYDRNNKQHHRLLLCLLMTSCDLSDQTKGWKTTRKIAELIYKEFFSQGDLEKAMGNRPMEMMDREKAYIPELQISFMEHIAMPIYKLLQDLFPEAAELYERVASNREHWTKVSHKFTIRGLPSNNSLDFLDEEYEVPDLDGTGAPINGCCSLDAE
Assay: PDE2 fluorescence polarization (IMAP FP) inhibition assay, rhesus enzyme
Assay type: biochemical, rhesus macaque
Details: Rhesus PDE2, Lab B; read-out: Rhesus PDE2 Ki (nM) - Lab B
Description: The activity of the compounds in accordance with the present invention as PDE2 inhibitors may be readily determined using a fluorescence polarization (FP) methodology (Huang, W., et al., J. Biomol Screen, 2002, 7: 215). In a typical experiment the PDE2 inhibitory activity of the compounds of the present invention was determined in accordance with the following experimental method. […] 0% of inhibition is determined by using DMSO (1% final concentrations). […]
measured_parameter: Ki (nM)

Example compounds with recorded Ki:
{"compound": "COc1ccc(Cc2nc(C(=O)N[C@@H](c3ccc(OC(F)(F)F)c(F)c3)C(C)(C)C)cc(=O)[nH]2)cc1F", "units_text": "nM", "numeric_value": 0.92}
{"compound": "Cc1nc(C(=O)NC(C)(C)c2ccc(C(F)(F)F)c(F)c2)cc(=O)[nH]1", "units_text": "nM", "numeric_value": 14}
{"compound": "CC(C)(C)[C@@H](NC(=O)c1cc(=O)[nH]c(C2CC2)n1)c1ccc(C2CC2)cc1", "units_text": "nM", "numeric_value": 1.3}

a. CCc1ccc(C(C)NC(=O)c2cc(=O)[nH]c(-c3ncccn3)n2)cc1 (stereo not shown)
b. COc1ccc(Cc2nc(C(=O)N[C@@H](c3ccc(C(F)(F)F)cc3)C3CC3)cc(=O)[nH]2)cc1
Q: Just tell me: smaller Ki value, a or b ? // return label of chosen record
Ans: b
(b: 1.9 nM, a: 25 nM)

* * *

Target: human PDE2A1 (Homo sapiens (Human))
Assay: IMAP FP PDE selectivity panel, human PDE2A1
Format: biochemical
Conditions: Human PDE2, Lab A; read-out: Human PDE2 Ki (nM) - Lab A
measured_parameter: Ki (nM)

{"compound": "C[C@@H](NC(=O)c1cc(=O)[nH]c(-c2ncccn2)n1)c1ccc(-c2ccccc2)cc1 [Example 287]", "Ki / nM": 28}

A. C[C@@H](NC(=O)c1cc(=O)[nH]c(Cc2ccccc2)n1)c1ccc(C(F)(F)F)cc1 [Example 133]
B. C[C@@H](NC(=O)c1cc(=O)[nH]c(-c2ccccc2)n1)c1ccc(C(F)(F)F)c(Cl)c1 [Example 190]
Q: Hi, I'm comparing A with B and wondering which one has the bigger number for Ki. Any idea? Return value: the label identifying the chosen record.
Ans: A

* * *

Biological target: UniProt:B3VTJ2
Assay: PDE2 fluorescence polarization (IMAP FP) inhibition assay, rhesus enzyme
Type: biochemical, rhesus macaque
Settings: Rhesus PDE2, Lab A; read-out: Rhesus PDE2 Ki (nM) - Lab A
measured_parameter: Ki (nM)

{"compound": "O=C(NC1(c2ccc(SC(F)(F)F)c(F)c2)CC1)c1cc(=O)[nH]c(C2CC2)n1", "units_text": "nM", "numeric_value": 8.7}
{"compound": "CCC(NC(=O)c1cc(=O)[nH]c(C)n1)c1ccc(C(C)(C)C)cc1 (centres unmarked)", "units_text": "nM", "numeric_value": 102}
{"compound": "COc1ccc(Cc2nc(C(=O)N[C@H](C)c3ccc(C(F)(F)F)cc3)cc(=O)[nH]2)cc1OC", "units_text": "nM", "numeric_value": 0.56}
{"compound": "C[C@@H](NC(=O)c1cc(=O)[nH]cn1)c1ccc(C(F)(F)F)cc1", "units_text": "nM", "numeric_value": 410}
{"compound": "Cc1nc(C(=O)N[C@H](C)c2cccc3ccccc23)cc(=O)[nH]1", "units_text": "nM", "numeric_value": 53}
{"compound": "CC(NC(=O)c1cc(=O)[nH]c(-c2ccccc2)n1)c1ccc(C(F)(F)F)cc1Cl (centres unmarked)", "units_text": "nM", "numeric_value": 51}

1. COCc1nc(C(=O)N[C@@H](c2ccc(SC(F)(F)F)cc2)C(C)C)cc(=O)[nH]1
2. CC[C@@H](NC(=O)c1cc(=O)[nH]c(-c2ncccn2)n1)c1ccc(C(F)(F)F)c(F)c1
Q: For the two items 1 and 2 , which reports the higher Ki value? Refer to your chosen entry by its label in the reply.
Ans: 1

* * *

Biological target: UniProtKB B3VTJ2
Assay: PDE2 fluorescence polarization (IMAP FP) inhibition assay, rhesus enzyme
Assay type: biochemical, rhesus macaque
Conditions: Rhesus PDE2, Lab B; read-out: Rhesus PDE2 Ki (nM) - Lab B
Experimental: The activity of the compounds in accordance with the present invention as PDE2 inhibitors may be readily determined using a fluorescence polarization (FP) methodology (Huang, W., et al., J. Biomol Screen, 2002, 7: 215). In a typical experiment the PDE2 inhibitory activity of the compounds of the present invention was determined in accordance with the following experimental method. […] 0% of inhibition is determined by using DMSO (1% final concentrations). […]
measured_parameter: Ki (nM)

{"compound": "CC(C)[C@@H](NC(=O)c1cc(=O)[nH]c(-c2ncccn2)n1)c1ccc(C(F)(F)F)cc1", "numeric_value": 4.9}
{"compound": "CC(NC(=O)c1cc(=O)[nH]c(-c2ccccc2)n1)c1ccc(C(F)(F)F)nc1 (stereo not drawn)", "numeric_value": 490}
{"compound": "Cc1nc(C(=O)N[C@@H](c2ccc(OC(F)F)cc2)C2CC2)cc(=O)[nH]1", "numeric_value": 68}
{"compound": "Cc1nc(C(=O)N[C@@H](c2ccc(C(F)(F)F)c(F)c2)C(C)(C)C)cc(=O)[nH]1", "numeric_value": 6.4}
{"compound": "CC(NC(=O)c1cc(=O)[nH]c(-c2ccccc2)n1)c1cccc(C(F)(F)F)c1 (stereo not drawn)", "numeric_value": 2050}
{"compound": "Cc1nc(C(=O)NC(c2ccc(SC(F)(F)F)c(F)c2)C2(C)CC2)cc(=O)[nH]1 (single isomer, unassigned) [Example 702]", "numeric_value": 8.7}
{"compound": "O=C(c1cc(=O)[nH]c(-c2ccccc2)n1)N1Cc2cnc(-c3ccccc3)nc2C1", "numeric_value": 3930}
{"compound": "COc1ccc2cc(C(C)NC(=O)c3cc(=O)[nH]c(-c4ccccc4)n3)ccc2c1 (stereo not drawn)", "numeric_value": 41}

A. CC[C@@H](NC(=O)c1cc(=O)[nH]c(C(C)(C)c2ccc(OC)cc2)n1)c1ccc(SC(F)(F)F)cc1
B. CC[C@@H](NC(=O)c1cc(=O)[nH]c(Cc2ccc(OC)cc2)n1)c1ccc(C(F)(F)F)c(F)c1
Q: Compare the recorded Ki of A and B ; state which is larger. Lab log: write the label of the selected item as the result.
Ans: A
(A: 54 nM, B: 3 nM)

* * *

Molecular target: UniProt O00408
Test: IMAP FP PDE selectivity panel, human PDE2A1
Type: biochemical
Settings: Human PDE2, Lab B; read-out: Human PDE2 Ki (nM) - Lab B
measured_parameter: Ki (nM)

Study these solved cases before continuing.
{"compound": "O=C(N[C@@H](c1ccc(OC(F)F)cc1)C1CC1)c1cc(=O)[nH]c(C2CC2)n1 [Example 446]", "assayed_system": "UniProt O00408", "units_text": "nM", "Ki": 42}
{"compound": "C[C@](CO)(NC(=O)c1cc(=O)[nH]c(-c2ccccc2)n1)c1ccc(C(F)(F)F)cc1 [Example 642]", "assayed_system": "UniProt O00408", "units_text": "nM", "Ki": 4.8}
{"compound": "COc1ccc(Cc2nc(C(=O)N[C@@H](c3ccc(OC(F)(F)F)c(F)c3)C3CC3)cc(=O)[nH]2)cc1 [Example 478]", "assayed_system": "UniProt O00408", "units_text": "nM", "Ki": 1.7}
{"compound": "COc1ccc(C(C)(C)c2nc(C(=O)N[C@@H](c3ccc(OC(F)(F)F)c(F)c3)C(C)(C)C)cc(=O)[nH]2)cc1 [Example 487]", "assayed_system": "UniProt O00408", "units_text": "nM", "Ki": 63}
{"compound": "CC(C)c1ccc([C@H](NC(=O)c2cc(=O)[nH]c(C3CC3)n2)C2(C)CC2)cc1 [Example 444]", "assayed_system": "UniProt O00408", "units_text": "nM", "Ki": 2.5}

1. CC[C@@H](NC(=O)c1cc(=O)[nH]c(-c2ccccc2)n1)c1ccc(S(F)(F)(F)(F)F)cc1 [Example 386]
2. CC(C)[C@@H](NC(=O)c1cc(=O)[nH]c(-c2ncccn2)n1)c1ccc2c(c1)OC(F)(F)O2 [Example 592]
Q: Input pair: 1 , 2 . Output: entry with lower Ki. Let me know the label of the one you choose.
Ans: 1
(1: 6.5 nM, 2: 15 nM)

a. COc1ccc(Cc2nc(C(=O)N[C@@H](c3ccc(OC(F)(F)F)c(F)c3)C3CC3)cc(=O)[nH]2)cc1F [Example 521]
b. Cc1nc(C(=O)NC(C)(C)c2ccc(C(F)(F)F)cc2F)cc(=O)[nH]1 [Example 596]
c. CC1([C@@H](NC(=O)c2cc(=O)[nH]c(-c3ccccc3)n2)c2ccc(S(F)(F)(F)(F)F)cc2)CC1 [Example 549]
d. CC(C)(NC(=O)c1cc(=O)[nH]c(C2CC2)n1)c1ccc(S(F)(F)(F)(F)F)cc1 [Example 680]
Q: Order the records by Ki, with each subsequent value no larger than the one before. Please list each label once, in the requested order.
Ans: d, b, c, a
(d: 87 nM, b: 22 nM, c: 4.5 nM, a: 2.2 nM)

I. CC(C)(C)c1ccc([C@H](NC(=O)c2cc(=O)[nH]c(-c3ncccn3)n2)C2(C)CC2)cc1 [Example 563]
II. COc1ccc(C(C)(C)c2nc(C(=O)N[C@@H](c3ccc(C(F)(F)F)cc3)C(C)C)cc(=O)[nH]2)cc1 [Example 493]
III. O=C(N[C@@H](c1ccc(S(F)(F)(F)(F)F)cc1)C1CC1)c1cc(=O)[nH]c(-c2ncccn2)n1 [Example 412]
Q: Sequence the entries by Ki, beginning with the highest number. Lab note: final answer is the ordered label list.
Ans: II, I, III
(II: 62 nM, I: 27 nM, III: 10 nM)
